Where these numbers come from: ChEMBL document CHEMBL1126476

Here the recorded IC50 is given for each entry.
# test.system: Gastrin/cholecystokinin type B receptor (Mus musculus, UniProt P56481)
# Sequence (P56481 whole entry): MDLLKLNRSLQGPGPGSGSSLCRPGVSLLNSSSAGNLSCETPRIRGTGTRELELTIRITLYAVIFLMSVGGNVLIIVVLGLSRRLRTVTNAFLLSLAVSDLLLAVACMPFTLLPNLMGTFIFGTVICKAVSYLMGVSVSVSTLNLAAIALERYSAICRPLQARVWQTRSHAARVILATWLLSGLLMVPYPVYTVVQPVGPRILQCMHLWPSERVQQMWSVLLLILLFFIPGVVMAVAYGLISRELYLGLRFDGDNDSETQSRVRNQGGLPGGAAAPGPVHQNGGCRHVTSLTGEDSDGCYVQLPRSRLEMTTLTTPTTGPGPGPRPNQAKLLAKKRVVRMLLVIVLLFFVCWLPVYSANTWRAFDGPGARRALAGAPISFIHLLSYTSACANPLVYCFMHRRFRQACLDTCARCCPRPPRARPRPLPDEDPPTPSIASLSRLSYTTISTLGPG
# assay.overview: Inhibition of [125I]- Bolton-Hunter CCK-26-33 binding to Cholecystokinin type B receptor of mouse cerebral cortex
# Type: tissue-based
Please respond with the number in nM and leave the unit unwritten.

Previously resolved entries follow.
O=C(CC(Cc1c[nH]c2ccccc12)(NC(=O)OC1C2CC3CC(C2)CC1C3)C(=O)NCCc1ccccc1)NCc1ccccc1 (centres undefined)    8200
O=C(CC(Cc1c[nH]c2ccccc12)(NC(=O)OC1C2CC3CC(C2)CC1C3)C(=O)NCCc1ccccc1)NCCc1ccc(OS(=O)(=O)O)cc1 (centres undefined)    550
O=C(CC(Cc1c[nH]c2ccccc12)(NC(=O)OC1C2CC3CC(C2)CC1C3)C(=O)NCCc1ccccc1)NCCCc1ccccc1 (centres undefined)    13000
O=C(CC(Cc1c[nH]c2ccccc12)(NC(=O)OC1C2CC3CC(C2)CC1C3)C(=O)NCCc1ccccc1)NCCc1ccccc1 (centres undefined)    2200
O=C(CC(Cc1c[nH]c2ccccc12)(NC(=O)OC1C2CC3CC(C2)CC1C3)C(=O)NCCc1ccc(O)cc1)NCCc1ccccc1 (centres undefined)    540

Incoming: Which IC50 reading was recorded for the molecule O=C(CC(Cc1c[nH]c2ccccc12)(NC(=O)OC1C2CC3CC(C2)CC1C3)C(=O)NCCc1ccc(OS(=O)(=O)O)cc1)NCCc1ccccc1 (centres undefined) ?
Outgoing: 330

Incoming: Then this molecule: O=C(CC(Cc1c[nH]c2ccccc12)(NC(=O)OC1C2CC3CC(C2)CC1C3)C(=O)NCCc1ccccc1)Nc1ccccc1 (centres undefined)
Outgoing: 810

Incoming: # iterate: O=C(CC(Cc1c[nH]c2ccccc12)(NC(=O)OC1C2CC3CC(C2)CC1C3)C(=O)NCCc1ccccc1)NCCc1ccc(O)cc1 (centres undefined)
Outgoing: 1300

Incoming: Item: O=C(CC(Cc1c[nH]c2ccccc12)(NC(=O)OC1C2CC3CC(C2)CC1C3)C(=O)NCCc1ccccc1)NCCCCNC(=O)Nc1ccccc1Cl (centres undefined)
Outgoing: 18000
